- assayed.system: Serine hydrolase RBBP9 (Homo sapiens) (UniProt O75884)
- Sequence (O75884 whole entry, looked up): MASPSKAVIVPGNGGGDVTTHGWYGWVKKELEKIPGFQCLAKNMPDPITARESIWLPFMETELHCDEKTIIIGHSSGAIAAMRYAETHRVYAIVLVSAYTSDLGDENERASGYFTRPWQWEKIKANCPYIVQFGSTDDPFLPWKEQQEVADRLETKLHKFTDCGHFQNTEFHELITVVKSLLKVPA
- assay.protocol: inhibition of RBBP9 probe labeling – biochemical, gel-based ABPP, FP-rhodamine, powder samples, orthogonal assay, late-stage follow-up (AID 2269)
- test.parameters: recombinant RBBP9, gel-based ABPP, at 20 µM, active compounds read high
Activity calls are given as the source filed them. How the calls were made is not given here.
property.measured: inhibition

[
  {
    "structure.smiles.string": "C/C(=N\\OC(=O)c1cccc(C(F)(F)F)c1)c1nccs1",
    "inhibition": "46% (inactive)"
  },
  {
    "structure.smiles.string": "C/C(=N\\OC(=O)N1CCCCC1)c1nccs1",
    "inhibition": "0% (inactive)"
  },
  {
    "structure.smiles.string": "N/C(Cc1cccs1)=N\\OC(=O)C12CC3CC(CC(C3)C1)C2",
    "inhibition": "6% (inactive)"
  },
  {
    "structure.smiles.string": "CC(=NOC(=O)c1c(-c2ccccc2Cl)noc1C)c1nccs1",
    "inhibition": "17% (inactive)"
  },
  {
    "structure.smiles.string": "NC(=O)C(=NOC(=O)c1ccccc1Cl)c1nc(-c2ccc(Br)cc2)cs1",
    "inhibition": "0% (inactive)"
  }
]

The compound NC(=NOC(=O)C1CCCCC1)c1cccc([N+](=O)[O-])c1 showed inhibition equal to 5% (inactive)

For C/C(=N\OC(=O)c1ccc([N+](=O)[O-])cc1)c1nccs1 the compound record lists inhibition as 15% (inactive)

Lab note: C/C(=N\OC(=O)c1ccc(Cl)cc1)c1nccs1 gave inhibition of 78%

---

- assayed.system: Serine hydrolase RBBP9 (Homo sapiens) (UniProt O75884)
- assay.protocol: inhibition of RBBP9 probe labeling – biochemical, gel-based ABPP, FP-rhodamine, powder samples, orthogonal assay, late-stage follow-up (AID 2269)
- test.parameters: recombinant RBBP9, gel-based ABPP, at 20 µM, active compounds read high
Parameter threshold = 10%. Response is yes when inhibition meets or exceeds it, else no.

These recorded examples may help you get a feel for the data.
[
  {
    "structure.smiles.string": "COc1ccc(C(=O)ON=C2C(C)=CC(=O)C=C2C)cc1",
    "assigned.category": "yes"
  },
  {
    "structure.smiles.string": "C/C(=N\\OC(=O)c1ccc(F)cc1)c1nccs1",
    "assigned.category": "yes"
  },
  {
    "structure.smiles.string": "CC(=NOC(=O)c1ccc(S(=O)(=O)N2CCOCC2)cc1)c1cc2ccccc2o1",
    "assigned.category": "yes"
  },
  {
    "structure.smiles.string": "CC(C)=NOC(=O)c1cn(-c2ccccc2)nc1-c1cccs1",
    "assigned.category": "no"
  },
  {
    "structure.smiles.string": "C/C(=N\\OC(=O)c1ccccc1Cl)c1ccc(Br)cc1",
    "assigned.category": "no"
  },
  {
    "structure.smiles.string": "C/C(=N\\OC(=O)c1c(-c2c(F)cccc2Cl)noc1C)c1nccs1",
    "assigned.category": "yes"
  }
]

Consider the additional compound presented here.
Does C/C(=N\OC(=O)c1ccccc1)c1nccs1 have a reported inhibition of at least 10%?
yes

---

- assayed.system: Serine hydrolase RBBP9 (Homo sapiens)
- assay.protocol: inhibition of RBBP9 probe labeling – biochemical, gel-based ABPP, FP-rhodamine, powder samples, orthogonal assay, late-stage follow-up (AID 2269)
- test.parameters: recombinant RBBP9, gel-based ABPP, at 20 µM
Active and inactive are the calls of the source. How the calls were made is not given here.
Can you answer with just one of these options? active, inactive

See these solved cases before continuing.
[
  {
    "structure.smiles.string": "C/C(=N\\OC(=O)c1ccccc1F)c1nccs1",
    "assigned.category": "active"
  },
  {
    "structure.smiles.string": "C/C(=N\\OC(=O)c1ccc(-c2ccccc2)cc1)c1nccs1",
    "assigned.category": "inactive"
  },
  {
    "structure.smiles.string": "CC(=O)O/N=C(\\C)c1nccs1",
    "assigned.category": "inactive"
  },
  {
    "structure.smiles.string": "COc1ccc(C(=O)O/N=C2\\C=C(C)C(=O)C=C2C)cc1",
    "assigned.category": "active"
  },
  {
    "structure.smiles.string": "COc1ccc(C(=O)O/N=C(\\C)c2nccs2)cc1",
    "assigned.category": "active"
  }
]

Please look at the following compound next.
Per the records of this test, what outcome belongs to CC(=NOC(=O)c1ccc(-c2cc(Cl)ccc2Cl)o1)c1ccccc1 ?
inactive
